These data points were gathered from ChEMBL document CHEMBL1782016.

Biological target: Integrin alpha-V/beta-3 (Homo sapiens, UniProt P05106+P06756)
Sequence (P05106 27-788 limits assumed): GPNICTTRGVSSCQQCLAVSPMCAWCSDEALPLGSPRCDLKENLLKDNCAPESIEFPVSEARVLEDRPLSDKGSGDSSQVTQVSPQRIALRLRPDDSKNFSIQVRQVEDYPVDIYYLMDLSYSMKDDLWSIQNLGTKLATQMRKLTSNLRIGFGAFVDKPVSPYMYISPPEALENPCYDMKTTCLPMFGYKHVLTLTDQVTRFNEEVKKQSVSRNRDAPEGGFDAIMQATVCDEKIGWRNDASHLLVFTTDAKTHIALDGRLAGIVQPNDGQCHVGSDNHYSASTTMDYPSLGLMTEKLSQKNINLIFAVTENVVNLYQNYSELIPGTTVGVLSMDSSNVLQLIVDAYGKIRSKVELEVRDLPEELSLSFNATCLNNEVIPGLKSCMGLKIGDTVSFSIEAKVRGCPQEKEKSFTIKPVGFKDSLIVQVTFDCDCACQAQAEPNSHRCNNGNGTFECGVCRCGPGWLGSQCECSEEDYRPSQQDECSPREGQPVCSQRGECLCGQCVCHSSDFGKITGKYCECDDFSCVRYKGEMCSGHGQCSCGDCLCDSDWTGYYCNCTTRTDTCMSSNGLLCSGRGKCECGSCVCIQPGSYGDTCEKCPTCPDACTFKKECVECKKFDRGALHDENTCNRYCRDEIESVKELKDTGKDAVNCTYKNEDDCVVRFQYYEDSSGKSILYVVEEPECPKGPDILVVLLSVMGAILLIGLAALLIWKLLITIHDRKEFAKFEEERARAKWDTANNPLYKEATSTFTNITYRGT
Sequence (P06756 31-889 limits assumed): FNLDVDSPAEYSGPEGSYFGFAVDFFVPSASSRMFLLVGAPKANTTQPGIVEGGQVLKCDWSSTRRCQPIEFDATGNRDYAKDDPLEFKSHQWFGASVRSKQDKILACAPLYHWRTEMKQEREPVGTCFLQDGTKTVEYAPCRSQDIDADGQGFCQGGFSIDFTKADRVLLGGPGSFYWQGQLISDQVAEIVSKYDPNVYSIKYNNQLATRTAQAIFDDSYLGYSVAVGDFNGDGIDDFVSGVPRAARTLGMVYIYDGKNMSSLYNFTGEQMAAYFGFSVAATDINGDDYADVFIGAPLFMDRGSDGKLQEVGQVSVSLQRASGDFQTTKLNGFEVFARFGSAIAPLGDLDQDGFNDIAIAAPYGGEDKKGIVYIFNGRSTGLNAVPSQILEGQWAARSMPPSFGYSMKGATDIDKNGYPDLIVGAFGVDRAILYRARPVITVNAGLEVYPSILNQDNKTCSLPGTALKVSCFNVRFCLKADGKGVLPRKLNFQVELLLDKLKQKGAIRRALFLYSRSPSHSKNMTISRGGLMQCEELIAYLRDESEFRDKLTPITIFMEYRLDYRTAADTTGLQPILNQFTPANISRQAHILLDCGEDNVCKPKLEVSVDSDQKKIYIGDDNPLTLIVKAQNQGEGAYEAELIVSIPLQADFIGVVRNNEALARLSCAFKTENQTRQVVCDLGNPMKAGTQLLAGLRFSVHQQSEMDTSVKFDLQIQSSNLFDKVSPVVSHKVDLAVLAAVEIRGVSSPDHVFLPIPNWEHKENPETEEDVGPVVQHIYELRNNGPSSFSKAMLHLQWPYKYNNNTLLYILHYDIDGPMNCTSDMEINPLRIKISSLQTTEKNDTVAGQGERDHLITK
Sequence (P06756 891-1048 limits assumed): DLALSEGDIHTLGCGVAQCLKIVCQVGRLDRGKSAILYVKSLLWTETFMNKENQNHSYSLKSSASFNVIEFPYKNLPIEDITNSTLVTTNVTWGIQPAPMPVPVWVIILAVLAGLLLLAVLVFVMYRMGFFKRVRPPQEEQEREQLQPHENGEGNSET
Test: Antagonist activity at alphavbeta3 integrin receptor
Assay type: functional
pIC50: −log10 of the molar value.
RECORDED_ENDPOINT: pIC50

Below: 2 compounds and their reported pIC50.
INSERT INTO results (test_smiles, recorded_endpoint, observed) VALUES
  ('O=C(NC[C@H](NS(=O)(=O)c1cccs1)C(=O)O)c1ccc(N2CCC[C@H](NC3=NCCCN3)C2)cc1', 'pIC50', 9.60),
  ('O=C(NC[C@H](NS(=O)(=O)c1ccccc1)C(=O)O)c1ccc(N2CCC(NC3=NCCCN3)CC2)c(O)c1', 'pIC50', 9.36);

I. O=C(NC[C@H](NS(=O)(=O)c1ccc(O)cc1)C(=O)O)c1ccc(N2CCC(NC3=NCCCN3)CC2)c(O)c1
II. O=C(NC[C@H](NS(=O)(=O)c1ccccc1)C(=O)O)c1ccc(N2CCC(NC3=NCCCN3)CC2)cc1
Input: Lab note: check whether I or II shows the higher recorded pIC50. // caller expects the label of the chosen entry
Output: I
(I: 9.52, II: 8.89)
